# System name: T1, recombinant human AXL extracellular domain, C-terminally His8-tagged (rhAXL-ECD) (human, UniProt P30530 26-451)
# T1 construct: Made in CHO cells; also called (rh)AXL-ECD His8; human AXL ECD
# T1 sequence: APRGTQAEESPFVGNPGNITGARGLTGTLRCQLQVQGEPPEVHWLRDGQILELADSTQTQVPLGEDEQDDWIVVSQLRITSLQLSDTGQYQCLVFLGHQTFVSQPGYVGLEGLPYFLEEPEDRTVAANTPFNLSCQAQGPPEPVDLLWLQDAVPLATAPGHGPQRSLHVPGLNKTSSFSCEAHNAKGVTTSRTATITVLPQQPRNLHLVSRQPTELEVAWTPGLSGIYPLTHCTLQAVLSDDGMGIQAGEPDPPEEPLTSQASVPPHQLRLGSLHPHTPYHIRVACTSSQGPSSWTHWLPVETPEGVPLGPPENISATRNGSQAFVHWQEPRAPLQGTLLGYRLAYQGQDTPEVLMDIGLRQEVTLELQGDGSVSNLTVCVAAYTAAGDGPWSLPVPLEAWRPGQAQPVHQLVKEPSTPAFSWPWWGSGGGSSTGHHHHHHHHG
# Assay overview: SPR Biacore T200, mAb captured on anti-Fc, AXL ECD flowed, single-cycle kinetics
Measured attribute: Kd (nM)

INSERT INTO measurements (binder, measured_attribute, measure_unit, result_number) VALUES
  ('hFC-F107-7H5 (antibody, human IgG1, kappa, V domains shown, Chimeric mAb, mouse VH/VL on human IgG1 heavy and human kappa light constant regions, made in CHO cells; also called mAb F107-7H5; hIgG-F107-7H5) VH: QVQLQQPGAELVKPGASVKLSCKASGYTFTSYWINWVKQRPGQGLEWIGNIYPDSSSTNYNEKFKSKATLTVDKSSTTAYIQFSSLTSEDSAVYYCTRDTYGGSPDYWGQGTTLTVSS VL: DIVMSQSPSSLAVSAGEKVTMSCKSSQSLLNSRTRKIYLAWYQQKPGQSPKLLIYWASTRQSGVPDRFTGSGSGTDFTLTISSVQAEDLAVYYCKQSYNLWTFGGGTKLEIKR', 'Kd', 'nM', 1);

Origin of values: patent US20240076389A1
